- Tested on: 616215-338-R-J1-PDC complex spheroid viability
- Protocol: Anticancer human tumor 616215-338-R-J1-PDC patient-derived colon adenocarcinoma cell line growth inhibition [POLQ]
- Assay conditions: second compound 1 µM; first compound 0.0316 µM; hits give low values
Quantity name: viability, T/C (%)
Give the quantity in %, number only.

// query Observed viability, T/C on 616215-338-R-J1-PDC complex spheroid viability for CC1COCCN1c1cc(C2(S(C)(=N)=O)CC2)nc(-c2ccnc3[nH]ccc23)n1 (stereo not given) + COC1C(OC(N)=O)C(O)C(Oc2ccc3c(O)c(NC(=O)c4ccc(O)c(CC=C(C)C)c4)c(=O)oc3c2C)OC1(C)C , please.
// result 99.3

// query Now give it for C=CCn1c(=O)c2cnc(Nc3ccc(N4CCN(C)CC4)cc3)nc2n1-c1cccc(C(C)(C)O)n1 + COC1C(OC(N)=O)C(O)C(Oc2ccc3c(O)c(NC(=O)c4ccc(O)c(CC=C(C)C)c4)c(=O)oc3c2C)OC1(C)C too.
// result 101

// query Now give it for COc1cccc(OCCCN)c1-c1cc(Nc2cnc(C#N)cn2)n[nH]1 + Nc1ccc(C#CCN(C(=O)Cc2ncc(C(F)(F)F)cc2C(F)(F)F)c2ccc(F)cc2)nn1 too.
// result 60.3

// query Now give it for COc1cc(C2c3cc4c(cc3C(OC3OC5COC(C)OC5C(O)C3O)C3COC(=O)C23)OCO4)cc(OC)c1O (stereo not given) + Cc1cccc(N(C)C(=O)C2C(O)CCN2c2nc(C)cc(C(F)(F)F)c2C#N)c1 too.
// result 94.4

// query Now give it for CCc1c2c(nc3ccc(O)cc13)-c1cc3c(c(=O)n1C2)COC(=O)[C@]3(O)CC + Cc1cccc(N(C)C(=O)C2C(O)CCN2c2nc(C)cc(C(F)(F)F)c2C#N)c1 too.
// result 79.9

* * *

- Test system: 616215-338-R-J1-PDC complex spheroid viability
- Protocol: Anticancer human tumor 616215-338-R-J1-PDC cell line growth inhibition [POLQ]
- Assay conditions: second compound 1 µM; first compound 1 µM; hits give low values
Quantity name: viability, T/C (%)
Give the quantity in %, number only.

Example compounds with recorded viability, T/C:
Compound	Unit string	viability, T/C
C=CC(=O)N1CCN(c2nc(=O)n(-c3c(C)ccnc3C(C)C)c3nc(-c4c(O)cccc4F)c(F)cc23)C(C)C1 (configuration not stated) + Cc1cccc(N(C)C(=O)C2C(O)CCN2c2nc(C)cc(C(F)(F)F)c2C#N)c1	%	101
O=c1[nH]cc(F)c(=O)[nH]1 + Nc1ccc(C#CCN(C(=O)Cc2ncc(C(F)(F)F)cc2C(F)(F)F)c2ccc(F)cc2)nn1	%	40.7
CCc1cc2c(N3CCc4c(cc(Cn5ccnc5)cc4-c4cn(C)nc4C(F)(F)F)C3=O)ccnc2c(OC)n1 + Cc1cccc(N(C)C(=O)C2C(O)CCN2c2nc(C)cc(C(F)(F)F)c2C#N)c1	%	74.1
CCc1cc2c(N3CCc4c(cc(Cn5ccnc5)cc4-c4cn(C)nc4C(F)(F)F)C3=O)ccnc2c(OC)n1 + Nc1ccc(C#CCN(C(=O)Cc2ncc(C(F)(F)F)cc2C(F)(F)F)c2ccc(F)cc2)nn1	%	56.2
COc1cccc(OCCCN)c1-c1cc(Nc2cnc(C#N)cn2)n[nH]1 + Nc1ccc(C#CCN(C(=O)Cc2ncc(C(F)(F)F)cc2C(F)(F)F)c2ccc(F)cc2)nn1	%	29.4

// query Return reported viability, T/C; argument: COc1cc2cc(C(=O)CCC(=O)O)sc2cc1OC + COC1C(OC(N)=O)C(O)C(Oc2ccc3c(O)c(NC(=O)c4ccc(O)c(CC=C(C)C)c4)c(=O)oc3c2C)OC1(C)C
// result 98.7

// query Now give it for C=CCn1c(=O)c2cnc(Nc3ccc(N4CCN(C)CC4)cc3)nc2n1-c1cccc(C(C)(C)O)n1 + Nc1ccc(C#CCN(C(=O)Cc2ncc(C(F)(F)F)cc2C(F)(F)F)c2ccc(F)cc2)nn1 too.
// result 27.6

// query Now give it for O=c1[nH]cc(F)c(=O)[nH]1 + Cc1cccc(N(C)C(=O)C2C(O)CCN2c2nc(C)cc(C(F)(F)F)c2C#N)c1 too.
// result 65.1

// query Now give it for CC1COCCN1c1cc(C2(S(C)(=N)=O)CC2)nc(-c2ccnc3[nH]ccc23)n1 (configuration not stated) + COC1C(OC(N)=O)C(O)C(Oc2ccc3c(O)c(NC(=O)c4ccc(O)c(CC=C(C)C)c4)c(=O)oc3c2C)OC1(C)C too.
// result 104

// query Now give it for CC1COCCN1c1cc(C2(O)CC3CCC(C2)O3)c2cnn(-c3ccn[nH]3)c2n1 (configuration not stated) + Nc1ccc(C#CCN(C(=O)Cc2ncc(C(F)(F)F)cc2C(F)(F)F)c2ccc(F)cc2)nn1 too.
// result 36.8

* * *

- Tested on: 616215-338-R-J1-PDC complex spheroid viability
- Protocol: Anticancer human tumor 616215-338-R-J1-PDC cell line growth inhibition [POLQ];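 also: spheroids exposed to compounds for one week before readout; percent viability relative to DMSO vehicle wells taken as 100%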
- Assay conditions: second compound 0.1 µM; first compound 0.1 µM; hits give low values
The threshold is 90%. Values of viability, T/C beneath it are tagged class 1; values meeting or exceeding it are tagged class 0.

Study these solved cases before continuing.
Compound	Label class
CC(C)n1c(=O)n(C)c2cnc3cc(F)c(-c4ccc(OCCCN5CCCCC5)nc4)cc3c21 + Nc1ccc(C#CCN(C(=O)Cc2ncc(C(F)(F)F)cc2C(F)(F)F)c2ccc(F)cc2)nn1	class 0
COc1cccc(OCCCN)c1-c1cc(Nc2cnc(C#N)cn2)n[nH]1 + Cc1cccc(N(C)C(=O)C2C(O)CCN2c2nc(C)cc(C(F)(F)F)c2C#N)c1	class 1
C=CCn1c(=O)c2cnc(Nc3ccc(N4CCN(C)CC4)cc3)nc2n1-c1cccc(C(C)(C)O)n1 + Cc1cccc(N(C)C(=O)C2C(O)CCN2c2nc(C)cc(C(F)(F)F)c2C#N)c1	class 0
O=C(Nc1ccc(O)c(NS(=O)(=O)c2ccc(F)cc2)c1)c1ccc(-c2ccccc2)cc1 + Nc1ccc(C#CCN(C(=O)Cc2ncc(C(F)(F)F)cc2C(F)(F)F)c2ccc(F)cc2)nn1	class 0
Nc1ccn(C2OC(CO)C(O)C2(F)F)c(=O)n1 (stereo unspecified) + COC1C(OC(N)=O)C(O)C(Oc2ccc3c(O)c(NC(=O)c4ccc(O)c(CC=C(C)C)c4)c(=O)oc3c2C)OC1(C)C	class 1

// query API: query returns whether the compound falls strictly under 90% in viability, T/C. Query: Cn1ncnc1[C@H]1c2n[nH]c(=O)c3cc(F)cc(c23)N[C@@H]1c1ccc(F)cc1 + Cc1cccc(N(C)C(=O)C2C(O)CCN2c2nc(C)cc(C(F)(F)F)c2C#N)c1
// result class 0

// query Now give it for Nc1ccn(C2OC(CO)C(O)C2(F)F)c(=O)n1 (stereo unspecified) + Cc1cccc(N(C)C(=O)C2C(O)CCN2c2nc(C)cc(C(F)(F)F)c2C#N)c1 too.
// result class 1

* * *

viability, T/C reference
- Test system: 616215-338-R-J1-PDC complex spheroid viability
- Protocol: Anticancer human tumor 616215-338-R-J1-PDC cell line growth inhibition [POLQ];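 also: spheroids exposed to compounds for one week before readout; percent viability relative to DMSO vehicle wells taken as 100%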
- Assay conditions: second compound 0.1 µM; first compound 0.01 µM; hits give low values
Give the quantity in %, number only.

// query Return reported viability, T/C; argument: Cn1ncnc1[C@H]1c2n[nH]c(=O)c3cc(F)cc(c23)N[C@@H]1c1ccc(F)cc1 + COC1C(OC(N)=O)C(O)C(Oc2ccc3c(O)c(NC(=O)c4ccc(O)c(CC=C(C)C)c4)c(=O)oc3c2C)OC1(C)C
// result 103

* * *

- Tested on: 616215-338-R-J1-PDC complex spheroid viability
- Protocol: Anticancer human tumor 616215-338-R-J1-PDC cell line growth inhibition [POLQ];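 also: spheroids exposed to compounds for one week before readout; percent viability relative to DMSO vehicle wells taken as 100%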
- Assay conditions: second compound 1 µM; first compound 0.000316 µM; hits give low values
Quantity name: viability, T/C (%)
Give the quantity in %, number only.

Molecule	Numeric value
Cn1ncnc1[C@H]1c2n[nH]c(=O)c3cc(F)cc(c23)N[C@@H]1c1ccc(F)cc1 + Cc1cccc(N(C)C(=O)C2C(O)CCN2c2nc(C)cc(C(F)(F)F)c2C#N)c1	101

// query Return reported viability, T/C; argument: Cn1ncnc1[C@H]1c2n[nH]c(=O)c3cc(F)cc(c23)N[C@@H]1c1ccc(F)cc1 + Nc1ccc(C#CCN(C(=O)Cc2ncc(C(F)(F)F)cc2C(F)(F)F)c2ccc(F)cc2)nn1
// result 108

// query Now give it for Cn1ncnc1[C@H]1c2n[nH]c(=O)c3cc(F)cc(c23)N[C@@H]1c1ccc(F)cc1 + COC1C(OC(N)=O)C(O)C(Oc2ccc3c(O)c(NC(=O)c4ccc(O)c(CC=C(C)C)c4)c(=O)oc3c2C)OC1(C)C too.
// result 106

* * *

- Test system: 616215-338-R-J1-PDC complex spheroid viability
- Protocol: Anticancer human tumor 616215-338-R-J1-PDC cell line growth inhibition [POLQ];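 also: spheroids exposed to compounds for one week before readout; percent viability relative to DMSO vehicle wells taken as 100%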
- Assay conditions: second compound 1 µM; first compound 0.316 µM; hits give low values
Quantity name: viability, T/C (%)
Give the quantity in %, number only.

Molecule	Unit string	viability, T/C
O=c1[nH]cc(F)c(=O)[nH]1 + COC1C(OC(N)=O)C(O)C(Oc2ccc3c(O)c(NC(=O)c4ccc(O)c(CC=C(C)C)c4)c(=O)oc3c2C)OC1(C)C	%	75.2

// query Return reported viability, T/C; argument: CCc1cc2c(N3CCc4c(cc(Cn5ccnc5)cc4-c4cn(C)nc4C(F)(F)F)C3=O)cc(C)nc2c(OC)n1 + COC1C(OC(N)=O)C(O)C(Oc2ccc3c(O)c(NC(=O)c4ccc(O)c(CC=C(C)C)c4)c(=O)oc3c2C)OC1(C)C
// result 104

// query Now give it for CCCS(=O)(=O)Nc1ccc(F)c(C(=O)c2c[nH]c3ncc(-c4ccc(Cl)cc4)cc23)c1F + COC1C(OC(N)=O)C(O)C(Oc2ccc3c(O)c(NC(=O)c4ccc(O)c(CC=C(C)C)c4)c(=O)oc3c2C)OC1(C)C too.
// result 96.7
